testSystem: JAK2 (Homo sapiens (Human), UniProt O60674)
Sequence (O60674 849-1124): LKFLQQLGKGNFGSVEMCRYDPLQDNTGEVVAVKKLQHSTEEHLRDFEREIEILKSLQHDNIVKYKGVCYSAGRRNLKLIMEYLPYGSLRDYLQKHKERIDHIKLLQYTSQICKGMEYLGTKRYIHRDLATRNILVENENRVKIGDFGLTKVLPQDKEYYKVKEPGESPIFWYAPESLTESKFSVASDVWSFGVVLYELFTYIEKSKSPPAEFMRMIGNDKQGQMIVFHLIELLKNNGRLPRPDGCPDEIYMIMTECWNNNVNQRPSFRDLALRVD
method: JAK Caliper Enzyme Assay at 1 mM ATP, JAK2
Assay type: biochemical
measurementContext: JAK Caliper enzyme assay
experimentalReadout: IC50
Remember to quote the unit after the number.

Study these solved cases before continuing.
compound="N#CC[C@]1(n2ncc(-c3cc(-c4cc[nH]c(=O)c4)cc4ncccc34)n2)C[C@@H](C#N)C1 [Example 410]" experimentalreadout=IC50 recordedvalue="207 nM"
compound="N#CC[C@]1(n2ncc(-c3cc(-c4cc5c(cn4)CCN5)cc4ncccc34)n2)C[C@@H](C#N)C1 [Example 380]" experimentalreadout=IC50 recordedvalue="811 nM"
compound="CN1C(=O)COc2ccc(-c3cc(-c4cnn([C@]5(CC#N)C[C@H](C#N)C5)n4)c4cccnc4c3)nc21 [Example 425]" experimentalreadout=IC50 recordedvalue="29 nM"

### Prompt Please report the recorded IC50 for Cn1cc(-c2cc(-c3cnn([C@]4(CC#N)C[C@@H](C#N)C4)c3)n3ccnc3c2)cn1 [Example 459] .
### Response 3150 nM
